Molecular target: ABL1 (Homo sapiens, UniProt P00519)
Construct: recombinant active kinase ABL1
Sequence (P00519 whole entry): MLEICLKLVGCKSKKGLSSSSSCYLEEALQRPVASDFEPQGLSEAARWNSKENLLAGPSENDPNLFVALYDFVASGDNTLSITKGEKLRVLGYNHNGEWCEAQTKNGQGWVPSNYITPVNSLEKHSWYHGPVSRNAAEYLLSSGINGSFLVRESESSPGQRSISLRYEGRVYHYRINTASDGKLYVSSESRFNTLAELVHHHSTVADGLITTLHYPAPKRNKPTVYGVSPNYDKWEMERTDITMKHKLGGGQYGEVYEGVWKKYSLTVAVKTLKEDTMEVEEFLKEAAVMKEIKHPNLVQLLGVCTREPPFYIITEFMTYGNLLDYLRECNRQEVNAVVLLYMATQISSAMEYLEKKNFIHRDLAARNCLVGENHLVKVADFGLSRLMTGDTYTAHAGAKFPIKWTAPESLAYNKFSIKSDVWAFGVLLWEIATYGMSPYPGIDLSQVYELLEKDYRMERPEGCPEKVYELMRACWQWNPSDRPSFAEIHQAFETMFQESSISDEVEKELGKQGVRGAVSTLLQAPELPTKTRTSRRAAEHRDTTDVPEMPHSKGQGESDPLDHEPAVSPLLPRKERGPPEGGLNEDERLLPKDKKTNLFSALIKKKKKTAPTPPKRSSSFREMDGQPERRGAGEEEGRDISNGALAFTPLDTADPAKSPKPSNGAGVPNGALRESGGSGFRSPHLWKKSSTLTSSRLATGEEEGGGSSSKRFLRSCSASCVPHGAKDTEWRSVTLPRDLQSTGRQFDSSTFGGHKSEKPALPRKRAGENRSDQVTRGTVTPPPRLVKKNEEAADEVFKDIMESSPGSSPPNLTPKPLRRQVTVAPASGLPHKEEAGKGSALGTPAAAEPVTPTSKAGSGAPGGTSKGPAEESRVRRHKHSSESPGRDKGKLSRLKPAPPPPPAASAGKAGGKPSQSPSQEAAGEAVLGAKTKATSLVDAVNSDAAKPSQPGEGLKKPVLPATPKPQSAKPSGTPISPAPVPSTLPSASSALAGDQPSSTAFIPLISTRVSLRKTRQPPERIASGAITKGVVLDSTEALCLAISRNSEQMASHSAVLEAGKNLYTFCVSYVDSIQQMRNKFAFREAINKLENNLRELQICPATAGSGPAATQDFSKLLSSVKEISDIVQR
Assay: Kinase-Glo Plus luminescence kinase assay; also live-cell co-localization competed by excess dasatinib
Assay type: biochemical
readout: IC50 (nM)
Give a bare numeral; the unit nM is implied.

Record Cc1nc(Nc2ncc(C(=O)Nc3c(C)cccc3Cl)s2)cc(N2CCN(CCNC(=O)CCC(=O)NCCOCCOCCCCCCCl)CC2)n1 . Reported IC50: 153
